# shrunken log2 fold change listing for each entry below
- System: Escherichia coli TOP10;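 further: peptides expressed intracellularly from a pBAD plasmid library in pooled LB shake-flask culture, induced with 0.3% L-arabinose, DNA abundance read by NGS, three biological replicates, DESeq2 with apeglm shrinkage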
- TEST DETAILS: shrunken log2 fold change of peptide-encoding DNA abundance (4.5 h post-induction vs induction); higher = less antimicrobial activity (less host growth inhibition)
- CONDITIONS USED: time post-induction: 4.5 h; library: site-saturation at positions 5, 18, 19, 20
ENDPOINT NAME: shrunken log2 fold change

>>> df
            sequence_string              endpoint_name  test_value
 0  RRIRYRPPRLPRPRPRPKSDPRP  shrunken log2 fold change      -0.299
 1  RRIRTRPPRLPRPRPRPHSTPRP  shrunken log2 fold change      -0.374
 2  RRIRLRPPRLPRPRPRPIINPRP  shrunken log2 fold change      -0.448
 3  RRIRRRPPRLPRPRPRPKRFPRP  shrunken log2 fold change       0.305
 4  RRIRCRPPRLPRPRPRPTTYPRP  shrunken log2 fold change      -0.781
 5  RRIRWRPPRLPRPRPRPKNKPRP  shrunken log2 fold change       0.107
 6  RRIRMRPPRLPRPRPRPLNVPRP  shrunken log2 fold change      0.0507
 7  RRIRSRPPRLPRPRPRPHEAPRP  shrunken log2 fold change      0.0366
 8  RRIRHRPPRLPRPRPRPAPIPRP  shrunken log2 fold change        0.31
 9  RRIRNRPPRLPRPRPRPNFGPRP  shrunken log2 fold change     -0.0224
10  RRIRMRPPRLPRPRPRPHYFPRP  shrunken log2 fold change     -0.0364
11  RRIRIRPPRLPRPRPRPNHMPRP  shrunken log2 fold change      -0.361
12  RRIRWRPPRLPRPRPRPRAYPRP  shrunken log2 fold change       0.224
13  RRIRSRPPRLPRPRPRPQDNPRP  shrunken log2 fold change      -0.362
14  RRIRWRPPRLPRPRPRPVIAPRP  shrunken log2 fold change       0.037
15  RRIRERPPRLPRPRPRPTRGPRP  shrunken log2 fold change      0.0807
16  RRIRERPPRLPRPRPRPQFKPRP  shrunken log2 fold change      -0.444
17  RRIRYRPPRLPRPRPRPKIMPRP  shrunken log2 fold change      -0.131
18  RRIRKRPPRLPRPRPRPVYEPRP  shrunken log2 fold change      -0.115
19  RRIRFRPPRLPRPRPRPIPRPRP  shrunken log2 fold change       0.365
20  RRIRARPPRLPRPRPRPNQTPRP  shrunken log2 fold change       0.064
21  RRIRGRPPRLPRPRPRPIEEPRP  shrunken log2 fold change       0.235
22  RRIRLRPPRLPRPRPRPGHCPRP  shrunken log2 fold change      0.0372
23  RRIRCRPPRLPRPRPRPRADPRP  shrunken log2 fold change       0.454
24  RRIRYRPPRLPRPRPRPWKKPRP  shrunken log2 fold change     0.00843
25  RRIRWRPPRLPRPRPRPRPGPRP  shrunken log2 fold change       0.772
26  RRIRPRPPRLPRPRPRPWFEPRP  shrunken log2 fold change      -0.261
27  RRIRHRPPRLPRPRPRPMRRPRP  shrunken log2 fold change     0.00585
28  RRIRKRPPRLPRPRPRPSAKPRP  shrunken log2 fold change       0.397
29  RRIRRRPPRLPRPRPRPSMMPRP  shrunken log2 fold change      -0.216
30  RRIRWRPPRLPRPRPRPPARPRP  shrunken log2 fold change       0.726
31  RRIRRRPPRLPRPRPRPATTPRP  shrunken log2 fold change       0.092
32  RRIRGRPPRLPRPRPRPNKWPRP  shrunken log2 fold change      0.0346
33  RRIRWRPPRLPRPRPRPAADPRP  shrunken log2 fold change        1.21
34  RRIRIRPPRLPRPRPRPGPRPRP  shrunken log2 fold change       0.358
35  RRIRMRPPRLPRPRPRPTFCPRP  shrunken log2 fold change       0.282
36  RRIRLRPPRLPRPRPRPGHSPRP  shrunken log2 fold change     -0.0313
37  RRIRCRPPRLPRPRPRPEQIPRP  shrunken log2 fold change       0.259
38  RRIRPRPPRLPRPRPRPVDWPRP  shrunken log2 fold change       0.656
39  RRIRFRPPRLPRPRPRPFLRPRP  shrunken log2 fold change      -0.313
40  RRIRARPPRLPRPRPRPDNMPRP  shrunken log2 fold change       -0.45
41  RRIRKRPPRLPRPRPRPSECPRP  shrunken log2 fold change     -0.0384
42  RRIRFRPPRLPRPRPRPWHFPRP  shrunken log2 fold change      -0.542
43  RRIRIRPPRLPRPRPRPQTYPRP  shrunken log2 fold change      -0.636
44  RRIRDRPPRLPRPRPRPSKAPRP  shrunken log2 fold change      -0.393
45  RRIRKRPPRLPRPRPRPKSRPRP  shrunken log2 fold change       0.296
46  RRIRSRPPRLPRPRPRPHAGPRP  shrunken log2 fold change       0.428

All values here come from the supplement of paper PMC9112550.
